Data provenance is patent US9724381B2.

assaySystem: Ghrelin/GHRP/GHS Receptor (Rattus norvegicus, UniProt O08725)
Sequence (O08725 whole entry): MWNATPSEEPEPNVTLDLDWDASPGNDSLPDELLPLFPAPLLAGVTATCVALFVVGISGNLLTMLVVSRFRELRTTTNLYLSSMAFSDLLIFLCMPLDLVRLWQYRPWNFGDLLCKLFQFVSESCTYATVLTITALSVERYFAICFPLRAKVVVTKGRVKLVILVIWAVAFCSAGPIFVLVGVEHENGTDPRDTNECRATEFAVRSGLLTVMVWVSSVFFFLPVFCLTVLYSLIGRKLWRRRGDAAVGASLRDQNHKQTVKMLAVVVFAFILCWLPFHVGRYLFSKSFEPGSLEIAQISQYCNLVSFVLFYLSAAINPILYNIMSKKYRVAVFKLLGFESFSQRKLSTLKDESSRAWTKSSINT
runDescription: In vitro GH release from isolated pituitary glands, pituitary incubation method
Type: cell-based
experimentalSetup: Table 1; peptide antagonist 10 μg/ml + stimulator His-DTrp-Ala-Trp-DPhe-Lys-NH2 10 ng/ml
Where no end group is shown, it is not given here. [ ]: non-standard residue; d: D form. The star is where a group is joined. Desaminotyrosyl = O=C(CCc1ccc(O)cc1)*
recordedEndpoint: Change in stimulated GH release versus preincubation (delta) (ng/mL)
Field format: number, assumed ng/mL, no unit text.

- substance: "DesaminoTyr-DTrp-DLys-Trp-DPhe-NH2 ([Desaminotyrosyl][dW][dK]W[dF]-NH2; SMILES NCCCC[C@@H](NC(=O)[C@@H](Cc1c[nH]c2ccccc12)NC(=O)CCc1ccc(O)cc1)C(=O)N[C@@H](Cc1c[nH]c2ccccc12)C(=O)N[C@H](Cc1ccccc1)C(N)=O)"
  assaySystem: "Ghrelin/GHRP/GHS Receptor (Rattus norvegicus, UniProt O08725)"
  measured: -1068

We now examine a further substance.
Entry under review: Tyr-DTrp-DTrp-Phe-Phe-NH2 (Y[dW][dW]FF-NH2; N-terminus assumed; SMILES NC(=O)[C@H](Cc1ccccc1)NC(=O)[C@H](Cc1ccccc1)NC(=O)[C@@H](Cc1c[nH]c2ccccc12)NC(=O)[C@@H](Cc1c[nH]c2ccccc12)NC(=O)[C@@H](N)Cc1ccc(O)cc1) . Reported Change in stimulated GH release versus preincubation (delta)?
1034

----------
assaySystem: Ghrelin/GHRP/GHS Receptor (Rattus norvegicus)
runDescription: In vivo GH release in rat (serum GH by RIA after i.v. peptide)
experimentalSetup: Table 5; peptide antagonist alone 10 μg i.v.
Description: For the in vivo assay of GH Release in rat, immature female Sprague Dawley rats were obtained from Charles River from Wilmington, Mass. After arrival they were housed at 25° C. with a 14:10 h light:dark cycle. Water and Purina rat chow were available at libitum. Pups were weaned at 21 days of age. Immature twenty six day old female Sprague Dawley rats, 3-6 rats per treatment dose, were pretreated with pentobarbital 20 minutes before iv injection of vehicle/peptide or peptide plus stimulator. […]
Where no end group is shown, it is not given here. [ ]: non-standard residue; d: D form. d1Nal = N[C@H](Cc1cccc2ccccc12)C(=O)O; Dab = NCC[C@H](N)C(=O)O; Inp = O=C(O)C1CCNCC1
recordedEndpoint: Unstimulated Basal GH release from rats (ng/mL)
Write the value in ng/mL as a bare number.

- substance: "αγAbu-DTrp-DTrp-Lys-NH2 ([Dab][dW][dW]K-NH2; N-terminus assumed; SMILES NCCCC[C@H](NC(=O)[C@@H](Cc1c[nH]c2ccccc12)NC(=O)[C@@H](Cc1c[nH]c2ccccc12)NC(=O)[C@@H](N)CCN)C(N)=O)"
  unitText: "ng/mL"
  Unstimulated Basal GH release from rats: 62
- substance: "αγAbu-DTrp-DTrp-Ser-NH2 ([Dab][dW][dW]S-NH2; N-terminus assumed; SMILES NCC[C@H](N)C(=O)N[C@H](Cc1c[nH]c2ccccc12)C(=O)N[C@H](Cc1c[nH]c2ccccc12)C(=O)N[C@@H](CO)C(N)=O)"
  unitText: "ng/mL"
  Unstimulated Basal GH release from rats: 62
- substance: "inip-Trp-Trp-Phe-NH2 ([Inp]WWF-NH2; N-terminus assumed; SMILES NC(=O)[C@H](Cc1ccccc1)NC(=O)[C@H](Cc1c[nH]c2ccccc12)NC(=O)[C@H](Cc1c[nH]c2ccccc12)NC(=O)C1CCNCC1)"
  unitText: "ng/mL"
  Unstimulated Basal GH release from rats: 69

Using the record for DThr-DαNal-DTrp-DPro-Arg-NH2 ([dT][d1Nal][dW][dP]R-NH2; N-terminus assumed; SMILES C[C@H](O)[C@@H](N)C(=O)N[C@H](Cc1cccc2ccccc12)C(=O)N[C@H](Cc1c[nH]c2ccccc12)C(=O)N1CCC[C@@H]1C(=O)N[C@@H](CCCNC(=N)N)C(N)=O) , report its Unstimulated Basal GH release from rats.
134

Ok, now DAla-Ala-DAla-DTrp-Phe-Lys-NH2 ([dA]A[dA][dW]FK-NH2; N-terminus assumed; SMILES C[C@H](NC(=O)[C@@H](C)N)C(=O)N[C@H](C)C(=O)N[C@H](Cc1c[nH]c2ccccc12)C(=O)N[C@@H](Cc1ccccc1)C(=O)N[C@@H](CCCCN)C(N)=O)
228

What would you report for Lys-DHis-DTrp-Phe-NH2 (K[dH][dW]F-NH2; N-terminus assumed; SMILES NCCCC[C@H](N)C(=O)N[C@H](Cc1c[nH]cn1)C(=O)N[C@H](Cc1c[nH]c2ccccc12)C(=O)N[C@@H](Cc1ccccc1)C(N)=O) ?
121

----------
assaySystem: Ghrelin/GHRP/GHS Receptor (Rattus norvegicus)
runDescription: In vivo GH release in rat (serum GH by RIA after i.v. peptide)
experimentalSetup: Table 3; peptide alone 30 μg i.v.
Where no end group is shown, it is not given here. [ ]: non-standard residue; d: D form. d2Nal = N[C@H](Cc1ccc2ccccc2c1)C(=O)O; dCha = N[C@H](CC1CCCCC1)C(=O)O; βAla = NCCC(=O)O
// reported Unstimulated Basal GH Release from rat per item
Give me the value, and tack the unit on after it.

Take a look at these entries with their results.
- substance: "DAla-DβNal-Ala-Ala-DAla-Lys-NH2 ([dA][d2Nal]AA[dA]K-NH2; N-terminus assumed; SMILES C[C@H](NC(=O)[C@H](C)NC(=O)[C@@H](Cc1ccc2ccccc2c1)NC(=O)[C@@H](C)N)C(=O)N[C@H](C)C(=O)N[C@@H](CCCCN)C(N)=O)"
  Unstimulated Basal GH Release from rat: "172 ± 15 ng/mL"
- substance: "DβNal-Ala-Trp-DPhe-Ala-NH2 ([d2Nal]AW[dF]A-NH2; N-terminus assumed; SMILES C[C@H](NC(=O)[C@@H](Cc1ccccc1)NC(=O)[C@H](Cc1c[nH]c2ccccc12)NC(=O)[C@H](C)NC(=O)[C@H](N)Cc1ccc2ccccc2c1)C(N)=O)"
  Unstimulated Basal GH Release from rat: "713 ± 71 ng/mL"
- substance: "DAla-DβNal-Ala-Thr-DThr-Lys-NH2 ([dA][d2Nal]AT[dT]K-NH2; N-terminus assumed; SMILES C[C@H](NC(=O)[C@@H](Cc1ccc2ccccc2c1)NC(=O)[C@@H](C)N)C(=O)N[C@H](C(=O)N[C@@H](C(=O)N[C@@H](CCCCN)C(N)=O)[C@H](C)O)[C@@H](C)O)"
  Unstimulated Basal GH Release from rat: "288 ± 31 ng/mL"
- substance: "DcyclohexylAla-Ala-Trp-DPhe-NH2 ([dCha]AW[dF]-NH2; N-terminus assumed; SMILES C[C@H](NC(=O)[C@H](N)CC1CCCCC1)C(=O)N[C@@H](Cc1c[nH]c2ccccc12)C(=O)N[C@H](Cc1ccccc1)C(N)=O)"
  Unstimulated Basal GH Release from rat: "354 ± 81 ng/mL"

What measured Unstimulated Basal GH Release from rat goes with βAla-Trp-DAla-DTrp-Phe-NH2 ([βAla]W[dA][dW]F-NH2; N-terminus assumed; SMILES C[C@@H](NC(=O)[C@H](Cc1c[nH]c2ccccc12)NC(=O)CCN)C(=O)N[C@H](Cc1c[nH]c2ccccc12)C(=O)N[C@@H](Cc1ccccc1)C(N)=O) ?
341 ± 46 ng/mL

----------
assaySystem: Ghrelin/GHRP/GHS Receptor (Rattus norvegicus)
runDescription: In vivo GH release in rat (serum GH by RIA after i.v. peptide)
experimentalSetup: Table 3; peptide alone 1 μg i.v.
Method: For the in vivo assay of GH Release in rat, immature female Sprague Dawley rats were obtained from Charles River from Wilmington, Mass. After arrival they were housed at 25° C. with a 14:10 h light:dark cycle. Water and Purina rat chow were available at libitum. Pups were weaned at 21 days of age. Immature twenty six day old female Sprague Dawley rats, 3-6 rats per treatment dose, were pretreated with pentobarbital 20 minutes before iv injection of vehicle/peptide or peptide plus stimulator. […]
Where no end group is shown, it is not given here. [ ]: non-standard residue; d: D form. d2Nal = N[C@H](Cc1ccc2ccccc2c1)C(=O)O; dCha = N[C@H](CC1CCCCC1)C(=O)O; Nle = CCCC[C@H](N)C(=O)O
recordedEndpoint: Unstimulated Basal GH Release from rat (ng/mL)
Note: unit ng/mL is implicit; provide only the numeric part.

- substance: "DcyclohexylAla-Ala-Phe-DTrp-Lys-NH2 ([dCha]AF[dW]K-NH2; N-terminus assumed; SMILES C[C@H](NC(=O)[C@H](N)CC1CCCCC1)C(=O)N[C@@H](Cc1ccccc1)C(=O)N[C@H](Cc1c[nH]c2ccccc12)C(=O)N[C@@H](CCCCN)C(N)=O)"
  Unstimulated Basal GH Release from rat / ng/mL: 199
- substance: "DAla-DcyclohexylAla-Ala-Phe-DPhe-Nle-NH2 ([dA][dCha]AF[dF][Nle]-NH2; N-terminus assumed; SMILES CCCC[C@H](NC(=O)[C@@H](Cc1ccccc1)NC(=O)[C@H](Cc1ccccc1)NC(=O)[C@H](C)NC(=O)[C@@H](CC1CCCCC1)NC(=O)[C@@H](C)N)C(N)=O)"
  Unstimulated Basal GH Release from rat / ng/mL: 435
- substance: "DAla-DβNal-DAla-DTrp-Phe-Lys-NH2 ([dA][d2Nal][dA][dW]FK-NH2)"
  Unstimulated Basal GH Release from rat / ng/mL: 184

So what's the measured Unstimulated Basal GH Release from rat for this one? His-DTrp-Phe-Trp-DPhe-Lys-NH2 (H[dW]FW[dF]K-NH2; N-terminus assumed; SMILES NCCCC[C@H](NC(=O)[C@@H](Cc1ccccc1)NC(=O)[C@H](Cc1c[nH]c2ccccc12)NC(=O)[C@H](Cc1ccccc1)NC(=O)[C@@H](Cc1c[nH]c2ccccc12)NC(=O)[C@@H](N)Cc1c[nH]cn1)C(N)=O)
67
